Source: the supplement of paper PMC10126150

- System: ATP;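 note: ATP exposure 15 min at 22 °C before imaging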
- Procedure Summary: switch fluorescence ratio, 500 uM ATP over buffer (Cy3 cluster intensity, sum of 5 cycles each) (fold (ratio)); higher = stronger signal-on switching upon ATP binding; sequences stand for … in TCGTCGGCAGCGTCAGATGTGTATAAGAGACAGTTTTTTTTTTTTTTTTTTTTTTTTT…TC
- Measurement Conditions: aptamer strand: ATP DNA aptamer (quencher-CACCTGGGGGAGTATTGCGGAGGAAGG + anchor), 100 nM annealed; ATP concentration: 500 uM
The threshold is inclusive: switch fluorescence ratio of exactly 1 counts as 1; values below receive -1.

Reference set, count: 5
- Biosequence: "TCGAGGGGGC"
  Answer Label: 1
- Biosequence: "CGGAAGGTAG"
  Answer Label: -1
- Biosequence: "ATGGTTATGC"
  Answer Label: 1
- Biosequence: "AGACGAGGAA"
  Answer Label: 1
- Biosequence: "TTTCTCGGCA"
  Answer Label: 1

Now for a further sequence.
Is switch fluorescence ratio at least 1? Consider CCTGGGCTGT
1

* * *

Overview of reported switch fluorescence ratio across a group of sequences:
- Test system: ATP;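 note: ATP exposure 15 min at 22 °C before imaging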
- Procedure Summary: switch fluorescence ratio, 500 uM ATP over buffer (Cy3 cluster intensity, sum of 5 cycles each) (fold (ratio)); higher = stronger signal-on switching upon ATP binding; sequences stand for … in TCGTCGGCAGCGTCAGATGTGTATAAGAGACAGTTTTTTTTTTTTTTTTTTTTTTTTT…TC
- Measurement Conditions: aptamer strand: ATP DNA aptamer (quencher-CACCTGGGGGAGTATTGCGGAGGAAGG + anchor), 100 nM annealed; ATP concentration: 500 uM
No unit in the answer, please; the number alone is enough.

Consider the reported switch fluorescence ratio for these sequences:
- Biosequence: "GTGAGGCGGA"
  Tested System: "ATP"
  Measured Number: 1.07
- Biosequence: "GTTTTTGGTT"
  Tested System: "ATP"
  Measured Number: 1
- Biosequence: "AGACTAGTTT"
  Tested System: "ATP"
  Measured Number: 1.02

Checklist item: switch fluorescence ratio tested on ATP, entry TACAGCGCGT , value?;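 note: ATP exposure 15 min at 22 °C before imaging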
1.01

Lookup: switch fluorescence ratio / ATP / ATGAAAATCA
1.01

* * *

- Tested on: ATP;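 note: ATP exposure 15 min at 22 °C before imaging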
- Procedure Summary: switch fluorescence ratio, 500 uM ATP over buffer (Cy3 cluster intensity, sum of 5 cycles each) (fold (ratio)); higher = stronger signal-on switching upon ATP binding; sequences stand for … in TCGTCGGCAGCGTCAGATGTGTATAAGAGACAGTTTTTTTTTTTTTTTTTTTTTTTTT…TC
- Measurement Conditions: aptamer strand: ATP DNA aptamer (quencher-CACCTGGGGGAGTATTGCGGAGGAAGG + anchor), 100 nM annealed; ATP concentration: 500 uM
Assay Endpoint: switch fluorescence ratio

Below are worked cases with known answers.
- Biosequence: "TAACCACCTT"
  Assay Endpoint: "switch fluorescence ratio"
  Result: 1.12
- Biosequence: "AATTTGGGGC"
  Assay Endpoint: "switch fluorescence ratio"
  Result: 0.982
- Biosequence: "GGAGAGCGCG"
  Assay Endpoint: "switch fluorescence ratio"
  Result: 0.976

Returns the measured switch fluorescence ratio for the input sequence. Input: GGCGGGGGTG
1.04

Need switch fluorescence ratio of TTATAAATAC , thanks.
1.91

// query switch fluorescence ratio value for entry ATGTCAGGGT
0.973

* * *

- System: ATP;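 note: ATP exposure 15 min at 22 °C before imaging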
- Procedure Summary: switch fluorescence ratio, 500 uM ATP over buffer (Cy3 cluster intensity, sum of 5 cycles each) (fold (ratio)); higher = stronger signal-on switching upon ATP binding; sequences stand for … in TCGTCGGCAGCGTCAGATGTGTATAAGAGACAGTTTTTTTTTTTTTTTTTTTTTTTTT…TC
- Measurement Conditions: aptamer strand: ATP DNA aptamer (quencher-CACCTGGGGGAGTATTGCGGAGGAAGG + anchor), 100 nM annealed; ATP concentration: 500 uM
Items are presented alongside their recorded switch fluorescence ratio.
Please give only the number in your answer, with no unit.

Below are worked cases with known answers.
- Biosequence: "CTTGTCATCT"
  Tested System: "ATP"
  switch fluorescence ratio: 1
- Biosequence: "GAAGATGTAG"
  Tested System: "ATP"
  switch fluorescence ratio: 0.956
- Biosequence: "GGGGGTTTTT"
  Tested System: "ATP"
  switch fluorescence ratio: 0.997
- Biosequence: "CTTCTGGTCG"
  Tested System: "ATP"
  switch fluorescence ratio: 1.01
- Biosequence: "AAGGGTGGGA"
  Tested System: "ATP"
  switch fluorescence ratio: 1.01
- Biosequence: "GGGTCTCATC"
  Tested System: "ATP"
  switch fluorescence ratio: 1.02
- Biosequence: "CAATTTCCAG"
  Tested System: "ATP"
  switch fluorescence ratio: 1.02
- Biosequence: "GGGATGGGGC"
  Tested System: "ATP"
  switch fluorescence ratio: 1.04
- Biosequence: "TTAACCTTTT"
  Tested System: "ATP"
  switch fluorescence ratio: 1.36
- Biosequence: "GGCAGCTTTT"
  Tested System: "ATP"
  switch fluorescence ratio: 1.05

Which value of switch fluorescence ratio has been reported for TTTTGAATTG in the records?
0.984

For AAAGGCAAAG , what is its reported switch fluorescence ratio?
0.997

Please give the measured switch fluorescence ratio for this sequence: AAAGTTATAC
1.12

Entry GGAAGGTATG has what switch fluorescence ratio?
1.02

Looking for the measured switch fluorescence ratio of TAGTAGTTGC , can you help?
1.03

Fill in the blank: the reported switch fluorescence ratio of GGAATAAATG is ____.
1.02

What does the record list as switch fluorescence ratio for GAAGACAGCG ?
1.07

Look up switch fluorescence ratio for this sequence: TTACTTTTTT
1.02

Given the entry AGTAGGTAAA , report its measured switch fluorescence ratio.
1.03

Consider the sequence shown here: GGGGAGGGTG What is its recorded switch fluorescence ratio?
1.05

What value of switch fluorescence ratio has been recorded for this entry: AGTGGTGGAG
1

Field request: switch fluorescence ratio | item: AGAATGGGGG
1.02
